- test: yeast display, Sf9 membrane polyspecificity reagent, FACS + sequencing; frameworks hold sequencing errors
quantity.kind: polyreactivity (PSR sort gate)

sequence.entry	polyreactivity (PSR sort gate)
QVQLVESGGGVVQAGGSLRLSFAASGSTFPGNAMGWYRQAPGKERELVASISGGGDSTYYADSVKGRFTISRDNAKNTVYLQMNSLKPEDTADYYCAARSTRGHYTAYDYWGQGTQVTVSS	low polyreactivity
QVQLVESGGGLVQAGGSLRLSCAASGITSGHNAMGWYRQAPGKERELVADIRTGDSTNYADSVKGRFTISRDNAKNTVYLQMNSLKPEDTAVYYCAADSAYDVTSYGYWGQGTQVTVSS	low polyreactivity
QVQIVESGGGLVQAGGSLRLSCAASGRTFYSYAMGWYRQAPGKERELVAAIRWPGVRTYYADSVKGRFTISRDNAKNSFYLQMNSLKPEDTAVYYCAVYRYSGKGYRGPRDYWGQGTQVTVSS	high polyreactivity
QVQLVESGGGLVQAGGSLRLSCAASGRIFFRYVMGWYRPAPGKERELVATSTRSGGTTYYADSVKGRFTISRDNAKNTVYLQMNSLKPEDTAVYYCATDYTYHRVGPLYGFWGQGTQLTVSS	low polyreactivity
QVQVVESGGGFVQAGGSLRLSCAASGRTFRYYAMGWYRQAPGKERELVAVISSSDSTNYADSVKGRFTISRDNAKNTVNLQMNSLKPEDTGVYYCAKVYRVIRPYGYWGQGTQVTVSS	high polyreactivity

Proceeding to the next sequence to report its polyreactivity (PSR sort gate).
Entry QVQLVESGGGLVQAGGSLRLSCAASGFNFRGNAMGWYRQAPGKERELVARISGSGDSTYYADSVKGRFTISRDNAKNTVYLQMNSLKPEDTAVYYCNADVFPAVEAYDSSIEYYSWGQGTQVTVSS : reported polyreactivity (PSR sort gate) = ?
low polyreactivity

----------
- test: yeast display, Sf9 membrane polyspecificity reagent, FACS + sequencing; frameworks hold sequencing errors
quantity.kind: polyreactivity (PSR sort gate)

A selection of reference data follows.
sequence.entry	polyreactivity (PSR sort gate)
QVQLVESGGGLVQAGGSLRLICAASGRTFRRNAMGWYRQAPGKERELVAGIRSSGGSTYYADSVKGRFTISRDNAKNTVYLQMNSLKTEDTAVYYFAAAYRSASFPYDYWGQGTQVTVSS	high polyreactivity
QVQLVESGGGLVQVGGSLRLSCDASGITLSYYAMGWYRQAPGKVRELVASITVSRTSTYYADSVKRRFTISRDNAKNTVYLQMNSLKPEDTAVYYCAAYAFQYRFSGYGYWGQGTQVTVSS	low polyreactivity
QVQLVESGGGLVQAGGSLRLSCAASGIIFQSYTMGWYRQAPGKERELVAAIDSGGSTYYADSVKGRFTISRDNAKNTVYLQMNSLKPEDTAVYYCAAEPDTYWYTYDYWGQGTQVTVSS	low polyreactivity
QVQLVESGGGLVQAGGSLRLSCAASGRIFSKNAMGWYRPAPGKERELVAAISSGGSTYDADSVKGRFTISRDNAKNTVYLQMNSLKPEDTAVYYCAARKRGYYWGQGTQVTVSS	high polyreactivity
QVQLVESGGGLVQAGGSLRLSCAASGIIFVFYVMGWYRQAPGKERELVAAISGGGSTYYADSVKGRFTISRDNAKNTVYLQMNSLKPEDTAVYYCNADYDGGYYGDLSLYDYWGQGTQVTVSS	low polyreactivity

Entry QVQLVESGGGLVQAGGSLRLSCAASGSTFSPYAMGWYRQAPGKERELVAGISRGTSTNYADSVKGRFTISRDNAKNTVYLQMNSLKPVDTAVYYCAARAYHRYLPGYRVRFGDYYYWGQGTQVTVSS : reported polyreactivity (PSR sort gate) = ?
high polyreactivity

Moving on to QVQLVESGGGLVQAGGSLRLSCAASGLIFSRYAMGWYRQAPGKERELVAVISWSGGRTYYADSVKGRFTISRDNAKNTVYLQMNSLKPEDTAVYYCAARSYGGQGVRMDYWGQGTQVTVSS
high polyreactivity

Moving on to QVQLVESGGGLVQAGGSLRLSCAASGSTFKWYGRGWSRQAPGKDRELVATINYSSSTTYYADSVKGRFTISRDNAKNTVYLQMNSLKPEDTAVYYCAKGVYWGTKSTYDYWGQGTQVTVSS
high polyreactivity

----------
- test: yeast display, Sf9 membrane polyspecificity reagent, FACS + sequencing; frameworks hold sequencing errors
quantity.kind: polyreactivity (PSR sort gate)

A selection of reference data follows.
sequence.entry	polyreactivity (PSR sort gate)
QVQLVESGGGLVQAGGSLRLSCAASGTFQRYAMGWYRQAPGKERELVAGISSAGDTNYADSVKGRFTISRDNAKNTVYLQMKSLKPEDTAVYYCNAAYFAGPADDKFDYWGQGTQVTVSS	low polyreactivity
QVQLVQSGGGLVQAGGSLRLICAASGRTFYGNAMGWYRQAPGKERELVAAISRSGGRTYYADSVKGRFTISRDNAKNTVYLQMISLKTEDTAVYYCAKDYYYPSHTYGYWGQGTQVTVST	high polyreactivity
QVQLVESGGGLVQAGGSLRLSCAASGSTFQTYVMGWYRQAPGKERELVAAISSGGSTNYADSVKGRFTISRDNAKNTVYLQMISLKPEDTAVYYCAKRWPYFRRGKDGYWGQGTQVTVSS	low polyreactivity
QVQHVESGGGLVQAGGSLRLSCAASGRIFWDNASGWYRQAPGKVSELHAAISDSVVITYFADSVKGRFTISRDTAKYTVYLQMNSLKPEDTAFYYCAAHKRCTVYLSSFWMDYWGQGNQVTVSS	low polyreactivity
QVQLVESGRGLVQAGGSLRISCAASGRIFKNYAMGWYRQAPGKERELVADITWSDSDTSYADSVKGRFTITRDNAKNTVYLQMNCLKPEDTAVYYCAAETFDYADYIANGSAEYDYWGQGSQVTVSS	high polyreactivity
QVQLVESGGGLVQAGGSLRLSCAASGFTFFHYDMGWYRQAPGKERELVAAINTRGSRTYYADSVKGRFTISRDNAKNTVYLQMNSLKPEDTAGYYSAADSVQVYAGQYYYWGQGTQVTVSS	high polyreactivity
QVQLVESGGGLVQAGGSLRLSCAASGRIFWSYGMGWYRQAPGKERELVAAITNTGDGTYYADSVKGRFTISRDNAKNTVYLQMNSLKPEDTAVYYCAVDYRGYWYWEYDYWGQGTQVTVSS	high polyreactivity
QVQLVESGGGLVQAGGSLRLSCAASGRIFQSNAMGWYRQAPGKERELVAAISYSGGSTYYADSVKGRFTISRDNAKNTVYLQMNSLKPEDTAVYYCAADIFSPAFDYWGQGTQVTVSS	low polyreactivity
QVQLVESGGGLVQAGGSLRLSCAASGGTVWYYTMGWYRQAPGKERELVARITGGSRTNYADSVNGRFTISRDNAKNTVYLQMNSLKPEDTAVYYCARTSWSGVSYDYWGQGTQVTVSS	high polyreactivity
QDQLVEAGGGVVQAGGSLRLSCAASVIIIDYYAMAWYRQAPAKERELDAAITSGGSTSYADSVKGRFTISRDNAKNTVYLQMNSLKPEDTAVYYCNNEPSGYQSAYWGQGTQVTVSS	low polyreactivity

Entry QVQLVESGGGLLQAGGSLRLSCAASGRTFTNSAMGWYRQEPGKERELVAGISSSGGRTYYAVSVKGRFTISRDNAMNTVYLQMNSLKAEDTAVYYCAAQHSRVYRRMDYWGQGTQVSVSS : reported polyreactivity (PSR sort gate) = ?
high polyreactivity

Moving on to QVQLVESGGGLVQAGGSLRLSCAASGLTFKDNAMGWYRQAPGKERELVAAISKGGGSTFYADSVKGRFTISRDYAKNTVYFQMNSLKPEDTAVYYCNADVGYRGGEEVYWGQGTQVTVSS
low polyreactivity

Moving on to QVQLGESGGGLVQAGVSLRLSCAASGSLFYHNAMGWYRHAPGKERELVAAISGRGGSTYYADSVKGRFTISRDNAKNTVYLQMNSLKPEDTAVYYCAADARYQNGGLYYWGQGTQVTVSS
high polyreactivity

Moving on to QVQLVESGGGLVQAGGSLRLSCAASGSTFASNPMGGYRQAPGKERELVAAISGSGGSTYYADSVKGRFTISRDNAKNTVYLQMNSMTPEDTAVYYCNAAVAYYSYSYYTKVGVDYWGQGSQVTVSS
high polyreactivity

Moving on to QVQLVESGGGLVQAGGSLRLNCAASGIIFIVYRMGWYRQAPGKERELVASINYGNGSTYYADSVKGRFTISRDNAKTTVYLQMNSLKQEDTAVYYCNADYTGTRTDSVTPEYEYWGQGTQVTVSS
low polyreactivity

Moving on to QVQLVESGGGLVQAGGSLRLTCAASGSTFYIYAMGWYRQAPGKERELVAAISQGGGSTSYADSVKGRFTISRDYAKNTVYLQMNSLKPEDTAVYYCAARRASRVRGKEGGYWGQGSQVTVSS
high polyreactivity

Moving on to QVQLVESGGGLVQAGGSLRLSCAASGYIFKSYVMGWYRQAPGKERELVAAISWGGGRTYYADSVKGRFTISRDNAKNTVYLQMNSLKPEDTAVYYCAADTKVGNGIKFDYWGQGTQVTVSS
high polyreactivity
